- Target entity: h-DHODH (Homo sapiens)
- Sequence (Q02127 whole entry): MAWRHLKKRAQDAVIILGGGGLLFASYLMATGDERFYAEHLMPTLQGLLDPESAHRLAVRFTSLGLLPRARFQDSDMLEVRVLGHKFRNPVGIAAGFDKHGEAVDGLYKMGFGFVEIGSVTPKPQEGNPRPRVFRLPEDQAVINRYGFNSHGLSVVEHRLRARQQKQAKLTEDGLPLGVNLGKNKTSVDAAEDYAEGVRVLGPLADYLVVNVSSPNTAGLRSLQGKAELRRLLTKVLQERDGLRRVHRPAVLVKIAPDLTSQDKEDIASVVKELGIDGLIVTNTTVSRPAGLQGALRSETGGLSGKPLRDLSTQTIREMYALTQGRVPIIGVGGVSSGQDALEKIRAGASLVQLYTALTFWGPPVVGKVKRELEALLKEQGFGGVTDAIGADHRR
- Assay info: DHODH enzymatic assay (DCIP reduction at 600 nm)
- Applied conditions: recombinant human enzyme, 25° C.

| Structure smiles string | Target entity | IC50 |
| --- | --- | --- |
| CCOc1ccc(-c2ccc(-c3cc(C(=O)O)c4cc(F)ccc4n3)s2)cc1 | h-DHODH (Homo sapiens) | 212 nM |
| CCOc1cccc(-c2csc(-c3cc(C(=O)O)c4cc(F)ccc4n3)c2)c1 | h-DHODH (Homo sapiens) | 200 nM |
| CCOc1ccc(-c2csc(-c3cc(C(=O)O)c4cc(F)ccc4n3)c2)cc1 | h-DHODH (Homo sapiens) | 58 nM |
| CCOc1cccc(-c2ccc(-c3cc(C(=O)O)c4cc(F)ccc4n3)s2)c1 | h-DHODH (Homo sapiens) | 223 nM |
| CCOc1ccc(-c2csc(-c3cc(C(=O)O)c4cc(F)ccc4n3)n2)cc1 | h-DHODH (Homo sapiens) | 524 nM |
| CCOc1ccc(-c2ncc(-c3cc(C(=O)O)c4cc(F)ccc4n3)s2)cc1 | h-DHODH (Homo sapiens) | 472 nM |
| CCOc1ccc(-c2cnc(-c3cc(C(=O)O)c4cc(F)ccc4n3)s2)cc1 | h-DHODH (Homo sapiens) | 13900 nM |
| CCOc1ccc(-c2nc(-c3cc(C(=O)O)c4cc(F)ccc4n3)cs2)cc1 | h-DHODH (Homo sapiens) | 85 nM |

====

- Tested on: OCI-AML3 cell line
- Assay info: MTS assay for cell growth/viability
- Type: cell-based
- Applied conditions: Homo sapiens, OCI-AML-3, read-out: growth arrest in the OCI-AML3 cell line, IC50

| Molecule | IC50 |
| --- | --- |
| CCOc1ccc(-c2csc(-c3cc(C(=O)O)c4cc(F)ccc4n3)c2)cc1 [Cpd1] | 410 to 790 nM |
| CCOc1ccc(-c2ccc(-c3cc(C(=O)O)c4cc(F)ccc4n3)s2)cc1 [Cpd2] | 410 to 790 nM |
